These data points were gathered from patent US7074789B2.

pIC50: −log10 of the molar value.
// endpoint pIC50 / system UniProtKB P04626
Sequence (P04626 23-1255, species assumed): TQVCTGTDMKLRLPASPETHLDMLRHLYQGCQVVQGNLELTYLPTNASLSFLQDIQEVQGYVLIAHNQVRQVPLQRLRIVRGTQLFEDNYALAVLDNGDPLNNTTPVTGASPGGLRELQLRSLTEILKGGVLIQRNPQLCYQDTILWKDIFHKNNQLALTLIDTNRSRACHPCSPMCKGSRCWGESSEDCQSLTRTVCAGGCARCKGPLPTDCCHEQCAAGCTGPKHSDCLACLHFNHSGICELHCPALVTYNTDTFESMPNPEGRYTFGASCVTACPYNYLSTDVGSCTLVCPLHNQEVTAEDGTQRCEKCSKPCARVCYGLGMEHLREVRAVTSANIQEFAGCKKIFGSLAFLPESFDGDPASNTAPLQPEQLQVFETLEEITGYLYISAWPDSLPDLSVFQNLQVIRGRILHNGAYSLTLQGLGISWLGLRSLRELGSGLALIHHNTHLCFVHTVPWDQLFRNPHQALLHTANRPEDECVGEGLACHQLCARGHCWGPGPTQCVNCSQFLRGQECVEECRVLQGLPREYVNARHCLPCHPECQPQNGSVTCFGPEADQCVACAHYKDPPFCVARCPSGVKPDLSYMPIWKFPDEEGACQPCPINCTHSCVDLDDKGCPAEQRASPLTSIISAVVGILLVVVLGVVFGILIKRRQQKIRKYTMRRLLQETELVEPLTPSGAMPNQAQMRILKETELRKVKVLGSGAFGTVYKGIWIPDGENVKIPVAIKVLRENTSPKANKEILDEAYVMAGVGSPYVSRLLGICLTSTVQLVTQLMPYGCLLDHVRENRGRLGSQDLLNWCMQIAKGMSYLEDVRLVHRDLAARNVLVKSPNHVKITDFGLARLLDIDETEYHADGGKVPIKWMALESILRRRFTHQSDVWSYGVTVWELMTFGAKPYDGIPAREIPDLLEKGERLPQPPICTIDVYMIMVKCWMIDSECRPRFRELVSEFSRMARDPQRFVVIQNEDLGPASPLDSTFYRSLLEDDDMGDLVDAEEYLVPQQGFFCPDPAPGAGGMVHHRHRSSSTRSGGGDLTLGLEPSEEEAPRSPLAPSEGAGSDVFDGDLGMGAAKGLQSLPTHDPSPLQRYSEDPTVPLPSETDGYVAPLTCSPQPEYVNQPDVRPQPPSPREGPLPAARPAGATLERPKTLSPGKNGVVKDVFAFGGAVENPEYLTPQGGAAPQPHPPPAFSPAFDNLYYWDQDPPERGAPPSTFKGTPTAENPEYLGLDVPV

Example compounds with recorded pIC50:
COc1cc(Nc2ncnc(-c3cccnc3NCc3ccccc3OC(F)(F)F)n2)cc(OC)c1OC [Compound 842] :: 5.07 to 5.18
COc1cc(Nc2ncnc(-c3cccnc3Nc3cccc(C(C)=O)c3)n2)cc(OC)c1OC [Compound 831] :: < 5.02

Task: Quick one: pIC50 for COc1cc(Nc2ncnc(N3CCCc4cc(Cl)ccc43)n2)cc(OC)c1OC [Compound 639] ?
Result: 5.09 to 5.25

Task: Quick one: pIC50 for C=CCN(c1cccc(Cl)c1)c1ncnc(Nc2cc(OC)cc(OC)c2)n1 [Compound 722] ?
Result: 5.22 to 6.00

Task: Quick one: pIC50 for COc1cc(Nc2ncnc(Nc3ccc4nn(C)cc4c3)n2)cc(OC)c1OC [Compound 556] ?
Result: > 6.01

Task: Quick one: pIC50 for COc1cc(Nc2ncnc(Nc3ccc(OCCO)cc3)n2)cc(OC)c1OC [Compound 636] ?
Result: 5.24 to 6.01

Task: Quick one: pIC50 for COc1ccc(CNc2ncccc2-c2ncnc(Nc3cc(OC)c(OC)c(OC)c3)n2)nc1 [Compound 1085] ?
Result: < 5.02

Task: Quick one: pIC50 for COc1ccc(Nc2ncnc(Nc3cc(OC)c(OC)c(OC)c3)n2)cc1O [Compound 931] ?
Result: 5.22 to 6.00
